Hey, just so you know, these numbers are from PubChem BioAssay AID2202554.

Tested on: S. typhimurium/E. coli reverse mutation, colony counts
assay protocol: Bacterial reverse mutation test (aka Ames test) summary data;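 note: His-minus Salmonella and trp-minus E. coli WP2 uvrA pKM101 with or without liver S9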
Records with an inconclusive call do not appear. The source made the active and inactive calls. The rule behind the calls is not given here.
Returns: one label drawn from YES (active), NO (inactive)

Past entries and their recorded results:
| compound | label value |
| --- | --- |
| COc1cccc2sc(N)nc12 | YES |
| CCN(CC)c1ccc(N=O)c(O)c1 | NO |
| C=C(Cl)CSC(=S)N(CC)CC | YES |
| COC(=O)C1CCC(C)CC1 (stereo not drawn) | NO |
| C=C(C#N)C(=O)OCC | NO |
| O.O.O.O.O.O.O=[N+]([O-])[O-].O=[N+]([O-])[O-].O=[N+]([O-])[O-].[La+3] | NO |
| CCCC(O)C(CC)CO (stereo not drawn) | NO |
| CC(=O)Nc1ccc(N=Nc2cc(C)ccc2O)cc1 | YES |

[ask] For "O=C(Nc1cccc2c(=O)c3c(ccc4c5cc(NC(=O)c6ccccc6)c6c(=O)c7ccccc7c(=O)c6c5[nH]c43)c(=O)c12)c1ccccc1" , what call appears in the results of this test?
[reply] NO

[ask] Can you check "CCOc1ccc2c(c1)C(C)=CC(C)(C)N2" next?
[reply] NO

[ask] Can you check "ClCc1ccccc1" next?
[reply] YES

[ask] Can you check "C=CC(=O)NCO" next?
[reply] NO

[ask] Can you check C1=CC2C3C=CC(C3)C2C1 (stereo not drawn) next?
[reply] NO

###

System: S. typhimurium/E. coli reverse mutation, colony counts
assay protocol: Bacterial reverse mutation test (aka Ames test) summary data;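 note: His-minus Salmonella and trp-minus E. coli WP2 uvrA pKM101 with or without liver S9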
Records with an inconclusive call do not appear. Calls of active or inactive are those of the source. How the calls were made is not given here.
Returns: one label drawn from YES for active, NO for inactive

| structure smiles string | label value |
| --- | --- |
| FC(Cl)(Cl)C(F)(Cl)Cl | YES |
| CC[C@H]1OC(=O)[C@H](C)[C@@H](O[C@H]2C[C@@](C)(OC)[C@@H](O)[C@H](C)O2)[C@H](C)[C@@H](O[C@@H]2O[C@H](C)C[C@H](N(C)C)[C@H]2O)[C@](C)(OC)C[C@@H](C)C(=O)[C@H](C)[C@@H](O)[C@]1(C)O | NO |
| O=C(O)CCCc1ccc(N(CCCl)CCCl)cc1 | YES |
| Cc1cccc(C(=O)O)c1[N+](=O)[O-] | YES |
| CCOc1cc(C=O)ccc1O | NO |
| COc1cc(OC)c(OC)cc1C=O | NO |

[ask] For "Nc1ccccc1[N+](=O)[O-]" , what call appears in the results of this test?
[reply] NO

###

Test system: S. typhimurium/E. coli reverse mutation, colony counts
assay protocol: Bacterial reverse mutation test (aka Ames test) summary data;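 note: His-minus Salmonella and trp-minus E. coli WP2 uvrA pKM101 with or without liver S9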
Inconclusive results are not listed. Calls of active or inactive are those of the source. No rule for the calls is given here.
Returns: one label drawn from label 1 (active), label 0 (inactive)

Past entries and their recorded results:
| compound | subject of test | label value |
| --- | --- | --- |
| Brc1ccccc1 | S. typhimurium/E. coli reverse mutation, colony counts | label 0 |
| O=S(=O)([O-])[O-].[O]=[V+2] | S. typhimurium/E. coli reverse mutation, colony counts | label 0 |
| Cc1ccc(N=Nc2c(O)c(S(=O)(=O)O)cc3ccc(S(=O)(=O)O)cc23)c(C)c1 | S. typhimurium/E. coli reverse mutation, colony counts | label 1 |
| CCNC(=O)Nc1ncc([N+](=O)[O-])s1 | S. typhimurium/E. coli reverse mutation, colony counts | label 1 |
| O=c1c2ccccc2c(=O)c2c1ccc1c2[nH]c2c3c(=O)c4ccccc4c(=O)c3c3[nH]c4c(ccc5c(=O)c6ccccc6c(=O)c54)c3c12 | S. typhimurium/E. coli reverse mutation, colony counts | label 0 |

[ask] For "O=C(O)C(Br)(Br)Br" , what call appears in the results of this test?
[reply] label 1

[ask] Can you check "COc1ccc2cc3[n+](cc2c1OC)CCc1cc2c(cc1-3)OCO2" next?
[reply] label 0

[ask] Can you check "CCOC(=O)CBr" next?
[reply] label 1

[ask] Can you check "Nc1cc([N+](=O)[O-])cc(S(=O)(=O)O)c1O" next?
[reply] label 0

[ask] Can you check "Clc1cc(Cl)c(Cl)cc1Cl" next?
[reply] label 0

[ask] Can you check C=CC(C)(O)CCC=C(C)C (stereo unspecified) next?
[reply] label 0

[ask] Can you check "c1ccc(Oc2ccccc2)cc1" next?
[reply] label 0

[ask] Can you check "OC(CCl)CCl" next?
[reply] label 1

[ask] Can you check "O=C1OC2(c3ccccc31)c1cc(Br)c(O)c(Br)c1Oc1c2cc(Br)c(O)c1Br" next?
[reply] label 1

[ask] Can you check "Cc1cccnc1" next?
[reply] label 0

[ask] Can you check C=C(C)/C([O-])=N/[N+](C)(C)CC(C)O (stereo unspecified) next?
[reply] label 0

[ask] Can you check "CC(=O)CC(=O)Nc1ccccc1" next?
[reply] label 0

[ask] Can you check "O=C1CCC(=O)O1" next?
[reply] label 0

[ask] Can you check "N#CC(Br)Br" next?
[reply] label 1

[ask] Can you check "O=C1C(c2[nH]c3ccccc3c2O)=Nc2ccccc21" next?
[reply] label 1

[ask] Can you check "CNN" next?
[reply] label 0

[ask] Can you check "CC(=O)OO" next?
[reply] label 0

[ask] Can you check "CCCCCCCCC=O" next?
[reply] label 0

[ask] Can you check "Cc1ccc(N)cc1O" next?
[reply] label 1

[ask] Can you check "CCCCOCCOP(=O)(OCCOCCCC)OCCOCCCC" next?
[reply] label 0

[ask] Can you check "CCCCCCCCCCCC(=O)N(CCO)CCO" next?
[reply] label 0

[ask] Can you check "CC1(C)C(=O)N(Cl)C(=O)N1Cl" next?
[reply] label 0
